For each entry below, report its inhibition at 10 µM value.
Test system: HCV Replicon IB
method summary: HCV replicon assay in Huh-7 cells, genotype 1b (Rluc luciferase readout)
Assay type: cell-based, hepatitis C virus
applied conditions: Hepatitis C virus, 72 h; 10 uM; 1b-Rluc replicon, Huh-7 cells, 3 days; read-out: Inhibition @ 10 uM in 1b-Rluc
Your answer should be a plain number; it is taken to be in %.

Req: What value of measured inhibition at 10 µM is listed for Cc1cc(-c2nnc(N)o2)nc2c(C(F)(F)F)cc(C3CC3)cc12 [Compound 243] ?
Resp: 88.4

Req: What value of measured inhibition at 10 µM is listed for Cc1cc(C(=O)NCCC2CCCCN2)nc2c(C(F)(F)F)cc(C3CC3)cc12 (stereo not shown) [Compound 124] ?
Resp: 99.2

Req: What value of measured inhibition at 10 µM is listed for COCCCNc1nnc(-c2cc(C)c3cc(C4CC4)cc(C(F)(F)F)c3n2)s1 [Compound 290] ?
Resp: 99.9

Req: What value of measured inhibition at 10 µM is listed for Cc1cc(-c2nnc(NCC3OCCO3)o2)nc2c(C(C)(C)C)cc(C3CC3)cc12 [Compound 283] ?
Resp: 100

Req: What value of measured inhibition at 10 µM is listed for CCCCNc1nnc(-c2cc(C)c3cc(OC)cc(C(F)(F)F)c3n2)o1 [Compound 273] ?
Resp: 100

Req: What value of measured inhibition at 10 µM is listed for CCC(O)CNC(=O)c1cc(Cl)c2cc(OC(F)F)cc(C(F)(F)F)c2n1 (stereo not shown) [Compound 204] ?
Resp: 95.5

Req: What value of measured inhibition at 10 µM is listed for Nc1cc(C(=O)NCC2COCCN2)nc2c(C(F)(F)F)cc(C3CC3)cc12 (stereo not shown) [Compound 218] ?
Resp: 99.9

Req: What value of measured inhibition at 10 µM is listed for Cc1cc(-c2nnc(NCC(C)(C)CO)s2)nc2c(C(F)(F)F)cc(C3CC3)cc12 [Compound 304] ?
Resp: 96.2

Req: What value of measured inhibition at 10 µM is listed for Nc1cc(C(=O)NCC2CS(=O)(=O)CCN2)nc2c(C(F)(F)F)cc(OC(F)F)cc12 (stereo not shown) [Compound 198] ?
Resp: 98.4

Req: What value of measured inhibition at 10 µM is listed for CC(=O)N1CCOCC1CNC(=O)c1cc(C)c2cc(C3CC3)cc(C(F)(F)F)c2n1 (stereo not shown) [Compound 101] ?
Resp: 73.3
